Target: FlgE (flagellar hook protein) (Treponema denticola, UniProt Q9RQB6)
Sequence (Q9RQB6 11-454): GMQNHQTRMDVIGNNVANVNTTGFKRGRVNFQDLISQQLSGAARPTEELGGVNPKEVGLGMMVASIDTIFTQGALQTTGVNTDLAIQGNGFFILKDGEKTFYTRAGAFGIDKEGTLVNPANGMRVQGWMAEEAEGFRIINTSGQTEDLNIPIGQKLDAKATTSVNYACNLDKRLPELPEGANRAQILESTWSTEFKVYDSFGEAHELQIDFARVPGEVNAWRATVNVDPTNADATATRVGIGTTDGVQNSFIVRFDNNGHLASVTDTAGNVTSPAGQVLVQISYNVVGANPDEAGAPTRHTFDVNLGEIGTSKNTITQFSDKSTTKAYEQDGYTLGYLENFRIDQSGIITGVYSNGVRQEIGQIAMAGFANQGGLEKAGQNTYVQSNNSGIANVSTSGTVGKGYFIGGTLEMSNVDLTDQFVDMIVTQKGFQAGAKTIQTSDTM
Test: ELISA of Lal crosslinking between purified FlgE subunits
Format: biochemical
measured-quantity: IC50 (µM)

{"columns": ["molecule", "measured-quantity", "test-value"],
 "data": [
  ["C=CCc1ccc(O)c(-c2ccc(O)c(CC=C)c2)c1 [honokiol]", "IC50", 118]
]}

Cited source for all entries: paper PMC12906330
